# Test system: DIV14
# protocolSummary: qHTS profiling for inhibitors of Plasmodium falciparum proliferation (AID 504749); also: nearly all actives have a fitted effect of over 60% in size
# protocolConditions: P. falciparum in erythrocytes, SYBR Green DNA, 72 h; series mostly up to 28.7 µM
Inconclusive results are not listed. Active and inactive are the calls of the source. Calls follow the shape of the dose curve; as a rule, active = well fitted inhibition curve with a large enough effect; inconclusive = small, poorly fitted or top-dose-only effect; inactive = flat fitted curve, though single readings scatter.
Response enum: active, inactive

Here's what some known entries look like.
CN[C@@H]1[C@H](O[C@H]2[C@H](O[C@H]3[C@H](O)[C@@H](O)[C@H](N=C(N)N)[C@@H](O)[C@@H]3N=C(N)N)O[C@@H](C)[C@]2(O)C=O)O[C@@H](CO)[C@H](O)[C@H]1O; inactive
CN=C1C=CC(=C(c2ccc(N(C)C)cc2)c2ccc(N(C)C)cc2)C=C1; active

Returns: the outcome recorded for `CCc1ccc(S(=O)(=O)O)cc1` in this assay.
inactive

Give the logged outcome of this assay for the following compound: `COc1ccc(-c2noc(CC(=O)O)c2-c2ccc(OC)cc2)cc1`
inactive

Recorded test outcome, item O=C(NCCNCC(O)COc1ccc(O)cc1)N1CCOCC1 (stereo not given)
inactive

# fetch the recorded call for `Cc1c(Cl)cccc1Nc1ncccc1C(=O)O` here
inactive

Recorded call for `Cc1c(C)c2c(c(C)c1OC(=O)CCC(=O)O)CC[C@@](C)(CCC[C@H](C)CCC[C@H](C)CCCC(C)C)O2` ?
inactive

###

# System: AS120
# protocolSummary: qHTS profiling for inhibitors of Plasmodium falciparum proliferation (AID 504749); also: nearly all actives have a fitted effect of over 60% in size
# protocolConditions: P. falciparum in erythrocytes, SYBR Green DNA, 72 h; series mostly up to 28.7 µM
Inconclusive results are not listed. Active and inactive are the calls of the source. Calls come from the whole dose curve; as a rule, active = well fitted inhibition curve with a large enough effect; inconclusive = small, poorly fitted or top-dose-only effect; inactive = flat fitted curve, though single readings scatter.
Your reply should match one of these outcome classes. active, inactive

CC(C)c1nc(N(C)S(C)(=O)=O)nc(-c2ccc(F)cc2)c1/C=C/C(O)CC(O)CC(=O)O (stereo unspecified); inactive
O=C(OCc1ccccc1)c1ccc(O)cc1; inactive
CNC(=O)OCc1cccc(COC(=O)NC)n1; inactive
CCOC(=S)SSC(=S)OCC; inactive

Could you now consider this next compound?
Hey, what did the test say about `COc1ccc(C(=O)CCC(=O)O)c2ccccc12` ?
inactive

###

# Tested on: C2A
# protocolSummary: qHTS profiling for inhibitors of Plasmodium falciparum proliferation (AID 504749); also: nearly all actives have a fitted effect of over 60% in size
# protocolConditions: P. falciparum in erythrocytes, SYBR Green DNA, 72 h; series mostly up to 28.7 µM
Records with an inconclusive call do not appear. Calls of active or inactive are those of the source. Calls follow the shape of the dose curve; as a rule, active = well fitted inhibition curve with a large enough effect; inconclusive = small, poorly fitted or top-dose-only effect; inactive = flat fitted curve, though single readings scatter.
measurementType: outcome

Here's what some known entries look like.
CCOC(=O)c1cc(-c2ccccc2)nc2ccc(C)cc12; inactive
C[C@H](CCCC(C)(C)O)[C@H]1CC[C@H]2[C@@H]3CC=C4C[C@@H](O)CC[C@]4(C)[C@H]3CC[C@]12C; inactive
CN1C(=O)C[C@@H](C(=O)N[C@@H](Cc2cnc[nH]2)C(=O)N2CCC[C@H]2C(N)=O)NC1=O; inactive
Oc1cc(O)cc(O)c1; inactive
NC(=O)Oc1ccc(Cc2ccccc2)cc1; inactive

Record `Cc1ncc(C[n+]2csc(CCOP(=O)(O)O)c2C)c(N)n1` : what is its outcome with C2A?
inactive

Please state recorded outcome (tested on C2A) of OC1OC[C@@H](O)[C@H](O)[C@@H]1O (stereo partly specified)
inactive

Could you share what outcome was measured for `OB(O)O` , tested on C2A?
inactive

Param readout= outcome; system= C2A; entry= `CC(=O)Oc1cccc2c1C(=O)c1c(OC(C)=O)cc(C(=O)O)cc1C2=O` ; returns value.
inactive

Request: outcome, test system C2A, entry `O=P(O)(O)CP(=O)(O)O`
inactive

Return outcome measured with C2A given this compound: CCCCCCCCCCCCCC(=O)OCC(COP(=O)([O-])OCC[N+](C)(C)C)OC(=O)CCCCCCCCCCCCC (stereo unspecified)
inactive

###

# Test system: Dd2
# protocolSummary: qHTS profiling for inhibitors of Plasmodium falciparum proliferation (AID 504749); also: nearly all actives have a fitted effect of over 60% in size
# protocolConditions: P. falciparum in erythrocytes, SYBR Green DNA, 72 h; series mostly up to 28.7 µM
Results filed as inconclusive are left out. Calls of active or inactive are those of the source. The call rests on the fitted dose curve; in most records, active means well fitted inhibition curve with a large enough effect; inconclusive means small, poorly fitted or top-dose-only effect; inactive means flat fitted curve, though single readings scatter.
The categories you may choose from are active, inactive

Below are worked cases with known answers.
CC1=CC(=C(c2ccc(N)cc2)c2ccc(N)cc2)C=CC1=N; active
O=C(O)[C@H]1C(=CCO)O[C@H]2CC(=O)N12; inactive
CC1CCCCN1CCCOC(=O)c1ccccc1 (stereo unspecified); inactive
FC(F)(F)C(F)(F)C(F)(F)C(F)(F)C(F)(F)F; inactive
CN1CCC(OC(=O)C(Oc2ccc(Cl)cc2)Oc2ccc(Cl)cc2)CC1; inactive

Entry `Nc1nc(=O)n([C@@H]2CS[C@H](CO)O2)cc1F` : call = ?
inactive

What was the test verdict on `O=[N+]([O-])c1c(Cl)cccc1-c1c[nH]cc1Cl` ?
inactive

Can you look up the reported call for `CC(C)c1ncc([N+](=O)[O-])n1C` for me?
inactive

###

# Test system: DIV14
# protocolSummary: qHTS profiling for inhibitors of Plasmodium falciparum proliferation (AID 504749); also: nearly all actives have a fitted effect of over 60% in size
# protocolConditions: P. falciparum in erythrocytes, SYBR Green DNA, 72 h; series mostly up to 28.7 µM
Results filed as inconclusive are left out. Activity calls are given as the source filed them. Calls come from the whole dose curve; as a rule, active = well fitted inhibition curve with a large enough effect; inconclusive = small, poorly fitted or top-dose-only effect; inactive = flat fitted curve, though single readings scatter.
// classify into true (1) = active, false (0) = inactive

# fetch the recorded call for `CCCc1ccc(C(=O)O)cc1` here
false (0)

Each compound tested received a call. Report the one for FC(F)OC(Cl)C(F)(F)F (configuration not stated) .
false (0)

# fetch the recorded call for `Cc1ncc[nH]1` here
false (0)

So what was the verdict on `C[C@H](CCCC(C)(C)O)[C@H]1CC[C@H]2[C@@H]3CC=C4C[C@@H](O)CC[C@]4(C)[C@H]3CC[C@]12C` in this test?
false (0)

Given `N[C@H](CC(=O)O)C(=O)O` , state the outcome it received in this test.
false (0)

###

# Test system: CP215
# protocolSummary: qHTS profiling for inhibitors of Plasmodium falciparum proliferation (AID 504749); also: nearly all actives have a fitted effect of over 60% in size
# protocolConditions: P. falciparum in erythrocytes, SYBR Green DNA, 72 h; series mostly up to 28.7 µM
Results filed as inconclusive are left out. The source made the active and inactive calls. Calls follow the shape of the dose curve; as a rule, active = well fitted inhibition curve with a large enough effect; inconclusive = small, poorly fitted or top-dose-only effect; inactive = flat fitted curve, though single readings scatter.
Outcome field: choose from active, inactive

COc1ccc(/C=N/NC(=O)c2ccncc2)c(C(=O)O)c1OC; inactive
NCC[C@H](O)C(=O)N[C@@H]1C[C@H](N)[C@@H](O[C@H]2O[C@H](CN)[C@@H](O)[C@H](O)[C@H]2O)[C@H](O)[C@H]1O[C@H]1O[C@H](CO)[C@@H](O)[C@H](N)[C@H]1O; inactive
C[C@H](O)CN(C)C; inactive
Cc1cccc(Nc2ncccc2C(=O)O)c1C; inactive
CCCCCCCCCCCC(=O)OCC(O)CO (stereo not given); inactive
C[C@H]1O[C@@H](O[C@H]2[C@@H](O)C[C@H](O[C@H]3[C@@H](O)C[C@H](O[C@H]4CC[C@@]5(C)[C@H](CC[C@@H]6[C@@H]5C[C@@H](O)[C@]5(C)[C@@H](C7=CC(=O)OC7)CC[C@]65O)C4)O[C@@H]3C)O[C@@H]2C)C[C@H](O)[C@@H]1O; inactive
O=C(O)C1=C(CSc2nnnn2CS(=O)(=O)O)CS[C@@H]2[C@H](NC(=O)[C@H](O)c3ccccc3)C(=O)N12; inactive
CCN(CC)CCCC(C)Nc1cc(/C=C/c2ccccc2Cl)nc2cc(Cl)ccc12 (stereo not given); active
O=C1c2ccccc2C(=O)C1c1ccc(Cl)cc1; inactive
O=C(O)CCC/C=C\C[C@@H]1[C@@H](/C=C/[C@@H](O)COc2cccc(Cl)c2)[C@H](O)C[C@@H]1O; inactive

For `N[C@H](CC(=O)O)C(=O)O` , which call appears in the assay record?
inactive

// return assay outcome for `CSc1nc2cc(Oc3cccc(Cl)c3Cl)c(Cl)cc2[nH]1`
active

What is the recorded call for this compound in the test? `C[C@@](Cc1ccc(O)c(O)c1)(NN)C(=O)O`
inactive

I'd appreciate the recorded outcome for `Cc1ccc(S(=O)(=O)O)cc1C` from this test.
inactive

Entry `Oc1cc(O)cc(O)c1` : call = ?
inactive

For this compound, state the assay outcome: `O=C(O)[C@H]1CN(C/C=C/P(=O)(O)O)CCN1`
inactive

Test call, this compound: `O[C@@H]([C@H](O)[C@H](O)CBr)[C@H](O)CBr`
inactive

Hey, what did the test say about `CCCCCCCCCC(=O)NO` ?
inactive

Call for entry CC(C)CCCC(C)NC(C)C (stereo not given) :
inactive

# fetch the recorded call for `CC(C)(CO)[C@@H](O)C(=O)NCCC(=O)NCCSSCCNC(=O)CCNC(=O)[C@H](O)C(C)(C)CO` here
inactive

###

# Test system: ICS
# protocolSummary: qHTS profiling for inhibitors of Plasmodium falciparum proliferation (AID 504749); also: nearly all actives have a fitted effect of over 60% in size
# protocolConditions: P. falciparum in erythrocytes, SYBR Green DNA, 72 h; series mostly up to 28.7 µM
Results filed as inconclusive are left out. Activity calls are given as the source filed them. The call rests on the fitted dose curve; in most records, active means well fitted inhibition curve with a large enough effect; inconclusive means small, poorly fitted or top-dose-only effect; inactive means flat fitted curve, though single readings scatter.
Entry note: the call must match one of active, inactive

OCC1(CO)COC(C(Cl)(Cl)Cl)OC1; inactive

// next entry
Please state the recorded outcome for this compound: `NC(N)=O`
inactive
